- Assay Procedure: Human liver microsomal stability
- Assay type: in vitro ADME
- Experimental Setup: human liver microsomes, 20 min; read-out: % Remaining after 20 min
Where no end group is shown, it is not given here.
Quantity: remaining at 20 min, 1 μM (%)
Dear colleague, please return just the value in %, with no unit written.

*Q* Would you kindly share the measured remaining at 20 min, 1 μM for RDFQSFRKMWPFFAM [SEQ ID NO: 1, RDFQSFRKMWPFFAM, reference compound] ?
*A* 0

###

Binding to Foxp3 Ratio binding Peptide/p60 (fold change): recorded values
- Tested On: human FOXP3 (FOXP3-6His) (Homo sapiens)
- Construct: 6xHis (C); made in house; host or cells: E. coli BL21 (DE3)
- Sequence (Q9BZS1 whole entry): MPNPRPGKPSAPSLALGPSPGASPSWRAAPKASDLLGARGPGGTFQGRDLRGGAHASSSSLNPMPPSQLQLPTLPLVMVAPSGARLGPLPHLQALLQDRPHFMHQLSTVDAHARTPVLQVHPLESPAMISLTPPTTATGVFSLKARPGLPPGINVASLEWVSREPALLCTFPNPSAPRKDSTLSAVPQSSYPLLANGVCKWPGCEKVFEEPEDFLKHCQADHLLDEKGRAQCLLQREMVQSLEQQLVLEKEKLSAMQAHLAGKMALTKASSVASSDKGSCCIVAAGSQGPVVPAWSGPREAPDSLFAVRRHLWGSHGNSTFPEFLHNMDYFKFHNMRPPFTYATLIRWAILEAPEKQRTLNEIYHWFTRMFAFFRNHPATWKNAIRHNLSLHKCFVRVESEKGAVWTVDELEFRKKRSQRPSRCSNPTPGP
- Assay Procedure: Peptide binding to FOXP3 by surface plasmon resonance (SPR)
- Experimental Setup: peptides 1-20 μM; ratio to p60 (SEQ ID NO: 1)
Where a SMILES comes first, the peptide text is derived from it. [ ]: non-standard residue; d: D form.
Dear colleague, please return just the value in fold change, with no unit written.

Field: example entries. Status: answers known.
Compound	Tested On	Assay Result
CSCC[C@H](NC(=O)[C@H](C)NC(=O)[C@H](Cc1ccccc1)NC(=O)[C@H](Cc1ccccc1)NC(=O)[C@@H]1CCCN1C(=O)[C@H](Cc1c[nH]c2ccccc12)NC(=O)[C@H](CCSC)NC(=O)[C@H](CCCCN)NC(=O)[C@H](CCCNC(=N)N)NC(=O)[C@H](Cc1ccccc1)NC(=O)[C@H](CO)NC(=O)[C@H](CCC(N)=O)NC(=O)[C@H](Cc1ccccc1)NC(=O)[C@H](C)NC(=O)[C@H](N)CCCNC(=N)N)C(=O)O [compound 46] (H-[dR]AFQSFRKMWPFFAM-OH; N-terminus and C-terminus assumed)	human FOXP3 (FOXP3-6His) (Homo sapiens)	2.7
CSCC[C@H](NC(=O)[C@H](C)NC(=O)[C@H](Cc1ccccc1)NC(=O)[C@H](Cc1ccccc1)NC(=O)[C@@H]1CCCN1C(=O)[C@H](Cc1c[nH]c2ccccc12)NC(=O)[C@H](CCSC)NC(=O)[C@H](CCCCN)NC(=O)[C@H](CCCNC(=N)N)NC(=O)[C@H](Cc1ccccc1)NC(=O)[C@H](CO)NC(=O)[C@H](CCC(N)=O)NC(=O)[C@H](Cc1ccccc1)NC(=O)[C@@H](CC(=O)O)NC(=O)[C@@H](N)CCCNC(=N)N)C(=O)O [compound 3] (H-R[dD]FQSFRKMWPFFAM-OH)	human FOXP3 (FOXP3-6His) (Homo sapiens)	2.8
CSCC[C@H](NC(=O)[C@H](CCCCN)NC(=O)[C@H](CCCNC(=N)N)NC(=O)[C@H](Cc1ccccc1)NC(=O)[C@H](CO)NC(=O)[C@H](CCC(N)=O)NC(=O)[C@H](Cc1ccccc1)NC(=O)[C@H](C)NC(=O)[C@H](N)CCCNC(=N)N)C(=O)N[C@@H](Cc1c[nH]c2ccccc12)C(=O)N1CCC[C@H]1C(=O)N[C@@H](Cc1ccccc1)C(=O)N[C@@H](Cc1ccccc1)C(=O)N[C@@H](C)C(=O)N[C@H](CCSC)C(=O)O [compound 48] (H-[dR]AFQSFRKMWPFFA[dM]-OH; N-terminus and C-terminus assumed)	human FOXP3 (FOXP3-6His) (Homo sapiens)	2.5

The record that follows has no Binding to Foxp3 Ratio binding Peptide/p60 (fold change) shown yet.
*Q* Would you kindly share the measured Binding to Foxp3 Ratio binding Peptide/p60 (fold change) for CSCC[C@H](NC(=O)[C@H](C)NC(=O)[C@H](Cc1ccccc1)NC(=O)[C@H](Cc1ccccc1)NC(=O)[C@@H]1CCCN1C(=O)[C@H](Cc1c[nH]c2ccccc12)NC(=O)[C@H](CCSC)NC(=O)[C@H](CCCCN)NC(=O)[C@H](CCCNC(=N)N)NC(=O)[C@H](Cc1ccccc1)NC(=O)[C@H](CO)NC(=O)[C@H](CCC(N)=O)NC(=O)[C@H](Cc1ccccc1)NC(=O)[C@@H](CC(=O)O)NC(=O)[C@H](CCCNC(=N)N)NC(=O)CNC(C)=O)C(N)=O [compound 4] (Ac-GR[dD]FQSFRKMWPFFAM-NH2; C-terminus assumed) ?
*A* 4.2
